System: Mus musculus
Assay: Biodistribution in large gastrointestinal tract of C57BL/6J mouse bearing mouse B16F0 cells at 0.37 to 1.85 MBq, iv after 48 hrs by gamma counting method
Assay type: ADME, organism-based
Conditions: in vivo
measured.quantity: Drug uptake (% ID/g)

Below are worked cases with known answers.
1) O=C(c1ccc2c(n1)NCCC2)N1CCN(Cc2ccc([123I])cc2)CC1 = 0.2
2) O=C(CN1Cc2ccccc2C1=O)N1C[C@H]2CN(Cc3ccc([123I])cc3)C[C@H]2C1 = 0.1

(P) O=C(CN1Cc2ccccc2C1=O)NC1CCN(Cc2ccc([123I])cc2)CC1
(Q) O=C(c1ccc2cccnc2n1)N1CCN(Cc2ccc([123I])cc2)CC1
Query: For the pair P and Q , which member has the lower Drug uptake number? Respond using the label that marks the chosen record.
Response: Q
(Q: 0.3 % ID/g, P: 0.6 % ID/g)

====

Test system: Spleen
Assay: Biodistribution in spleen of C57BL/6J mouse bearing mouse B16F0 cells at 0.37 to 1.85 MBq, iv after 48 hrs by gamma counting method
Format: ADME, organism-based
Settings: in vivo
measured.quantity: Drug uptake (% ID/g)

Below are worked cases with known answers.
1) O=C(CN1Cc2ccccc2C1=O)N1C[C@H]2CN(Cc3ccc([123I])cc3)C[C@H]2C1 = 0.09
2) O=C(c1ccc2cccnc2n1)N1CCN(Cc2ccc([123I])cc2)CC1 = 0.2

(a) O=C(CN1Cc2ccccc2C1=O)NC1CCN(Cc2ccc([123I])cc2)CC1
(b) O=C(c1ccc2c(n1)NCCC2)N1CCN(Cc2ccc([123I])cc2)CC1
Query: For the pair a and b , which member has the lower Drug uptake number? Respond using the label that marks the chosen record.
Response: b
(b: 0.05 % ID/g, a: 0.1 % ID/g)

====

Tested on: Mus musculus
Assay: Biodistribution in large gastrointestinal tract of C57BL/6J mouse bearing mouse B16F0 cells at 0.37 to 1.85 MBq, iv after 16 hrs by gamma counting method
Type: ADME, organism-based, Large intestine
Settings: in vivo
measured.quantity: Drug uptake (% ID/g)

(I) O=C(c1ccc2cccnc2n1)N1CCN(Cc2ccc([123I])cc2)CC1
(II) O=C(CN1Cc2ccccc2C1=O)NC1CCN(Cc2ccc([123I])cc2)CC1
Query: Drug uptake comparison. Which is larger, I or II ? Respond using the label that marks the chosen record.
Response: II
(II: 8.1 % ID/g, I: 1.8 % ID/g)

(1) O=C(c1ccc2c(n1)NCCC2)N1CCN(Cc2ccc([123I])cc2)CC1
(2) O=C(CN1Cc2ccccc2C1=O)N1C[C@H]2CN(Cc3ccc([123I])cc3)C[C@H]2C1
Query: Drug uptake comparison. Which is larger, 1 or 2 ? Respond using the label that marks the chosen record.
Response: 1

====

Tested on: Mus musculus
Experiment: Biodistribution in small gastrointestinal tract of C57BL/6J mouse bearing mouse B16F0 cells at 0.37 to 1.85 MBq, iv after 48 hrs by gamma counting method
Format: ADME, organism-based
Details: in vivo
measured.quantity: Drug uptake (% ID/g)

1) O=C(c1ccc2c(n1)NCCC2)N1CCN(Cc2ccc([123I])cc2)CC1 = 0.1

(a) O=C(c1ccc2cccnc2n1)N1CCN(Cc2ccc([123I])cc2)CC1
(b) O=C(CN1Cc2ccccc2C1=O)N1C[C@H]2CN(Cc3ccc([123I])cc3)C[C@H]2C1
(c) O=C(CN1Cc2ccccc2C1=O)NC1CCN(Cc2ccc([123I])cc2)CC1
Query: Reorder the items by Drug uptake, least to greatest. A ranking is expressed here by listing the labels in the requested order.
Response: b, a, c
(b: 0.1 % ID/g, a: 0.2 % ID/g, c: 0.3 % ID/g)
